Recorded values, source patent US9586936B2.

Test: in-vivo PK profile, rat PK
Conditions: in vivo; Sprague-Dawley rat, PO 5 mg/kg
property: Cmax (ng/mL)
Use ng/mL as the unit, but write only the number.

Lookup: Need Cmax of CCN1CCN(c2ccc(Nc3cc(-n4c(Nc5c(Cl)c(OC)cc(OC)c5Cl)nc5ccccc54)ncn3)cc2)CC1 , thanks.
Found: 11.6

###

Assay: in-vivo PK profile, rat PK
Details: in vivo; Sprague-Dawley rat, PO 5 mg/kg
property: Tmax (h)
Give the number; h is assumed, so skip it.

Lookup: Fill blank: measured Tmax of the molecule CCN1CCN(c2ccc(Nc3cc(-n4c(Nc5c(Cl)c(OC)cc(OC)c5Cl)nc5ccccc54)ncn3)cc2)CC1 [Example 1] is ____.
Found: 5.33

###

Target: CYP2D6 (Homo sapiens, UniProt P10635)
Sequence (P10635 whole entry): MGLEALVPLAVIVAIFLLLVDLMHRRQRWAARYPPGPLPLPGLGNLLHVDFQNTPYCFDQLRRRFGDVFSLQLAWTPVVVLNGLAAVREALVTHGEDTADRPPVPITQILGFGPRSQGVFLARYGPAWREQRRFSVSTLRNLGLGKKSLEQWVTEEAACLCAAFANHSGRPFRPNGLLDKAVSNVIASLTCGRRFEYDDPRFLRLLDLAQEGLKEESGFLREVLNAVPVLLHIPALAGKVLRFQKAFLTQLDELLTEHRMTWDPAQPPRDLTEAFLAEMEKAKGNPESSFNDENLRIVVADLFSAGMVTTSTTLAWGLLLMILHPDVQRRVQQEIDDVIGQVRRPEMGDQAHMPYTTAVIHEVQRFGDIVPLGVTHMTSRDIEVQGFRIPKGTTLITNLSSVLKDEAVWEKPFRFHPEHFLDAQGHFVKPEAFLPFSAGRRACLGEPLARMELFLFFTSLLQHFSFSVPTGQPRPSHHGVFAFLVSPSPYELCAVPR
Assay: inhibition activity against CYPs (cytochromes P450)
Assay type: in vitro ADME
Details: human; concentration 25 μM
property: inhibition at 25 µM (%)
Could you give me the number in %? Just the number is fine.

Lookup: Hello, I am looking for reported inhibition at 25 µM with CYP2D6 (Homo sapiens, UniProt P10635) for CCN1CCN(c2ccc(Nc3cc(-n4c(Nc5c(Cl)c(OC)cc(OC)c5Cl)nc5ccccc54)ncn3)cc2)CC1 . Could you help?
Found: 13.6

###

Test: in-vivo PK profile, mouse PK
Settings: mouse, in vivo; ICR mice, PO 10 mg/kg
property: Cmax (ng/mL)
Give just the number in ng/mL; leave the unit off.

Lookup: Quick check: Cmax of CCN1CCN(c2ccc(Nc3cc(-n4c(Nc5c(Cl)c(OC)cc(OC)c5Cl)nc5ccccc54)ncn3)cc2)CC1 ?
Found: 27.1

###

Biological target: CYP2C19 (Homo sapiens, UniProt P33261)
Sequence (P33261 whole entry): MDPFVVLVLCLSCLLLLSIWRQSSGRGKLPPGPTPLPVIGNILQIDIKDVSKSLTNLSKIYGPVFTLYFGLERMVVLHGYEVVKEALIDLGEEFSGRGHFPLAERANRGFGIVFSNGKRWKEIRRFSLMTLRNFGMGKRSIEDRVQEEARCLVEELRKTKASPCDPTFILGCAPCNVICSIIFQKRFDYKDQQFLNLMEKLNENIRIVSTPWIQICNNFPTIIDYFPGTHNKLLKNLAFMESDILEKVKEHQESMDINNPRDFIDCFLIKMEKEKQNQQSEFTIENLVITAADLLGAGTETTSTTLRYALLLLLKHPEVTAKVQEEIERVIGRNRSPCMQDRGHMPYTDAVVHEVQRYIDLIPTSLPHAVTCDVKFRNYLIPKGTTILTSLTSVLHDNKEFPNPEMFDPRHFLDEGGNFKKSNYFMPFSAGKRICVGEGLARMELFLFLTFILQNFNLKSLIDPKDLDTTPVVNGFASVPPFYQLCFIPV
Experiment: inhibition activity against CYPs (cytochromes P450)
Assay type: in vitro ADME
Details: human; concentration 5 μM
Experimental: The inhibition activity (inhibition rate, %) of N-(2,6-dichloro-3,5-dimethoxyphenyl)-1-(6-((4-(4-ethylpiperazin-1-yl)phenyl)amino)pyrimidin-4-yl)-1H-benz[d]imidazol-2-amine synthesized in Example 1, as a representative compound of the present invention, against CYPs (cytochromes P450) was measured in order to investigate the risk of drug side effects.
property: inhibition at 5 µM
Hey, just the number and the unit after it is fine.

Lookup: Returns the measured inhibition at 5 µM for the input molecule. Input: CCN1CCN(c2ccc(Nc3cc(-n4c(Nc5c(Cl)c(OC)cc(OC)c5Cl)nc5ccccc54)ncn3)cc2)CC1
Found: 30%

###

Assay: in-vivo PK profile, mouse PK
Conditions: mouse, in vivo; ICR mice, IV 5 mg/kg
property: AUC(0-inf) (ng·h/mL)
The response must be a number in ng·h/mL with no trailing unit.

Lookup: Param item = CCN1CCN(c2ccc(Nc3cc(-n4c(Nc5c(Cl)c(OC)cc(OC)c5Cl)nc5ccccc54)ncn3)cc2)CC1 ; retrieve measured AUC(0-inf).
Found: 350

###

Test: in-vivo PK profile, rat PK
Conditions: in vivo; Sprague-Dawley rat, IV 5 mg/kg; read-out: MRT(0-∞)
property: MRT inf (h)
Numeric only. Scale: h

Lookup: Suppose we examine the compound CCN1CCN(c2ccc(Nc3cc(-n4c(Nc5c(Cl)c(OC)cc(OC)c5Cl)nc5ccccc54)ncn3)cc2)CC1 ; what MRT inf value has been reported?
Found: 6.37

###

Test: in-vivo PK profile, mouse PK
Details: mouse, in vivo; ICR mice, IV 5 mg/kg
property: Tmax (min)
Report only the number, with the unit min understood.

Lookup: Tell me the measured Tmax of CCN1CCN(c2ccc(Nc3cc(-n4c(Nc5c(Cl)c(OC)cc(OC)c5Cl)nc5ccccc54)ncn3)cc2)CC1 , please.
Found: 4.98
